Assign logP to each entry below.
- Measurement Protocol: physchem
- Test Context: n-octanol/water
- Description: n-Octanol-water partition coefficient, log P of the compound
Field format: numeric only.

Please give measured logP of the following entry: `COc1cc(OC)c(OC)cc1/C=N/NC(=O)c1ccccc1NC(=O)c1ccc(C)cc1`
4.23

Please give measured logP of the following entry: `Cc1ccc(C(=O)Nc2ccccc2C(=O)N/N=C/c2ccccc2)cc1`
4.61

Please give measured logP of the following entry: `COc1ccc(/C=N/NC(=O)c2ccccc2NC(=O)c2ccc(C)cc2)cc1`
4.66

Please give measured logP of the following entry: `Cc1ccc(C(=O)Nc2ccccc2C(=O)N/N=C/c2ccc(Cl)cc2Cl)cc1`
6.12

Please give measured logP of the following entry: `Cc1ccc(C(=O)Nc2ccccc2C(=O)N/N=C/c2ccc(O)c(O)c2)cc1`
4.02

Please give measured logP of the following entry: `COc1cc(/C=N/NC(=O)c2ccccc2NC(=O)c2ccc(C)cc2)cc(OC)c1OC`
4.63

Please give measured logP of the following entry: `COc1cc(OC)c(/C=N/NC(=O)c2ccccc2NC(=O)c2ccc(C)cc2)c(OC)c1`
4.87

Please give measured logP of the following entry: `COc1cc(/C=N/NC(=O)c2ccccc2NC(=O)c2ccc(C)cc2)ccc1O`
4.1

Please give measured logP of the following entry: `Cc1ccc(C(=O)Nc2ccccc2C(=O)N/N=C/c2ccc(N(C)C)cc2)cc1`
4.41

Please give measured logP of the following entry: `Cc1ccc(C(=O)Nc2ccccc2C(=O)N/N=C/c2ccc(O)cc2)cc1`
4.14

* * *

- Organism: Rattus norvegicus
- Measurement Protocol: animal or person
- Test Context: Wistar, po, read-out: INH
Attribute Measured: inhibition in vivo at 10 mg/kg (%)
Please respond with the number in % and leave the unit unwritten.

Please give measured inhibition in vivo at 10 mg/kg of the following entry: `COc1cc(OC)c(/C=N/NC(=O)c2ccccc2NC(=O)c2ccc(C)cc2)c(OC)c1`
13.1

Please give measured inhibition in vivo at 10 mg/kg of the following entry: `Cc1ccc(C(=O)Nc2ccccc2C(=O)N/N=C/c2ccc(O)c(O)c2)cc1`
55.3

Please give measured inhibition in vivo at 10 mg/kg of the following entry: `COc1cc(/C=N/NC(=O)c2ccccc2NC(=O)c2ccc(C)cc2)cc(OC)c1OC`
62.8

Please give measured inhibition in vivo at 10 mg/kg of the following entry: `Cc1ccc(C(=O)Nc2ccccc2C(=O)N/N=C/c2ccc(N(C)C)cc2)cc1`
22.3

Please give measured inhibition in vivo at 10 mg/kg of the following entry: `Cc1ccc(C(=O)Nc2ccccc2C(=O)N/N=C/c2ccc(Cl)cc2Cl)cc1`
0.35

Please give measured inhibition in vivo at 10 mg/kg of the following entry: `COc1cc(/C=N/NC(=O)c2ccccc2NC(=O)c2ccc(C)cc2)ccc1O`
19.5

Please give measured inhibition in vivo at 10 mg/kg of the following entry: `Cc1ccc(C(=O)Nc2ccccc2C(=O)N/N=C/c2ccccc2)cc1`
15.2

Please give measured inhibition in vivo at 10 mg/kg of the following entry: `Cc1ccc(C(=O)Nc2ccccc2C(=O)N/N=C/c2ccc(O)cc2)cc1`
19.5

Please give measured inhibition in vivo at 10 mg/kg of the following entry: `COc1ccc(/C=N/NC(=O)c2ccccc2NC(=O)c2ccc(C)cc2)cc1`
19.3

Please give measured inhibition in vivo at 10 mg/kg of the following entry: `COc1cc(OC)c(OC)cc1/C=N/NC(=O)c1ccccc1NC(=O)c1ccc(C)cc1`
62.4
